assayInfo: Apparent permeability in human Caco2 cells
Type: ADME, cell-based
assaySetup: Caco-2

compoundStructureString	Papp / ×10⁻⁶ cm/s
Cc1cn(-c2ccnc(Nc3cc(C)c(OCCO)c(C)c3)n2)cc1CN1CC[C@@H](O)C1	10.3
Cc1cc(C)cc(Nc2nccc(-n3cc(C)c(CN4CC[C@@H](O)C4)c3)n2)c1	2

* * *

targetEntity: Tyrosine-protein kinase ZAP-70 (Homo sapiens)
Sequence (P43403 whole entry): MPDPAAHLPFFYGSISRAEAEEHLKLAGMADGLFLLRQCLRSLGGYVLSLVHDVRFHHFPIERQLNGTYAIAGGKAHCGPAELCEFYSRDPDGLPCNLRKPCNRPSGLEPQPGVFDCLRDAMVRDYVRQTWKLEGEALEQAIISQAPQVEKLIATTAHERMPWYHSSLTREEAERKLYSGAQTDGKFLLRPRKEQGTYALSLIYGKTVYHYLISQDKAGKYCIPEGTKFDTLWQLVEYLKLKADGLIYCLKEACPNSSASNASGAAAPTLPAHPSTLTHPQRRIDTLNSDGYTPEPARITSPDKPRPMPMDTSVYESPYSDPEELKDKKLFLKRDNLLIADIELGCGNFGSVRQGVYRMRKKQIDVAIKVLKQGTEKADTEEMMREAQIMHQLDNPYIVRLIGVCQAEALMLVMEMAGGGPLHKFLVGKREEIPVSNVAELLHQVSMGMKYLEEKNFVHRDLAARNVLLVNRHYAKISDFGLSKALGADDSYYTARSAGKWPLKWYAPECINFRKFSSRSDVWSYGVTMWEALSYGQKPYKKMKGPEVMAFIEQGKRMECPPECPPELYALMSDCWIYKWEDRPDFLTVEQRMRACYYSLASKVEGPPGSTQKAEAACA

compoundStructureString	IC50, µM
Cc1nn(-c2ccnc(Nc3ccc4c(c3)c(C)c(C)n4C)n2)cc1CN1CC(O)C1	996

* * *

Below, each entry is listed with its recorded pIC50.
targetEntity: UniProtKB P43405
assayInfo: Inhibition of SYK-mediated TNFalpha production in human IgG-stimulated human THP1 cells incubated for 18 hrs by ELISA method
Format: cell-based, THP-1
pIC50: −log10 of the molar value.

compoundStructureString	pIC50
Cc1nn(-c2ccnc(Nc3ccc4c(c3)c(C)c(C)n4C)n2)cc1CN1CC(O)C1	7.25
Cc1cc(C)cc(Nc2nccc(-n3cc(C)c(CN4CC[C@@H](O)C4)c3)n2)c1	7.11

* * *

targetEntity: UniProt P43405
assayInfo: Inhibition of purified full-length human SYK pre-incubated for 30 mins at room temperature before Ulight-TK peptide substrate addition and measured 1 hr after substrate addition by cell free kinase assay
log10 of IC50 listing for selected compounds.
measuredMetric: log10 of IC50 (log10 of the value in nM)

compoundStructureString	dataValue
Cc1cc(C)cc(Nc2nccc(-n3cc(CN4CC(O)C4)c(C4CC4)c3)n2)c1	0.28
Cc1cc(C)cc(Nc2nccc(-n3cc(CN4CC[C@@H](O)C4)c(C4CC4)c3)n2)c1	0.57
Cc1nn(-c2ccnc(Nc3ccc4c(c3)c(C)c(C)n4C)n2)cc1CN1CC(O)C1	0.23
Cc1cc(C)cc(Nc2nccc(-n3cc(CN4CCC(O)CC4)c(C)n3)n2)c1	1.59
Cc1cn(-c2ccnc(Nc3cc(C)c(Oc4ccccc4)c(C)c3)n2)cc1CN1CC(O)C1	2.16
Cc1nn(-c2ccnc(Nc3ccc4c(cnn4C4CC4)c3)n2)cc1CN1CC(O)C1	0.90
Cc1cc(C)cc(Nc2nccc(-n3cc(C)c(CN4CC(O)C4)c3)n2)c1	0.73

* * *

Tested on: Rattus norvegicus
assayInfo: Volume of distribution at steady state in Sprague-Dawley rat at 10 mg/kg, po
Type: ADME, organism-based
assaySetup: in vivo
In this section, each of the compounds is paired with its reported Vdss.
measuredMetric: Vdss (L/kg)

compoundStructureString	measuredMetric	measurementUnits	dataValue
Cc1nn(-c2ccnc(Nc3ccc4c(c3)c(Cl)c(C)n4C)n2)cc1CN1CC(O)C1	Vdss	L/kg	3.3
Cc1nn(-c2ccnc(Nc3ccc4c(c3)c(C)c(C)n4C)n2)cc1CN1CC(O)C1	Vdss	L/kg	3.7
Cc1cc(C)cc(Nc2nccc(-n3cc(C)c(CN4CC[C@@H](O)C4)c3)n2)c1	Vdss	L/kg	4.3
COc1c(C)cc(Nc2nccc(-n3cc(C)c(CN4CC(O)C4)c3)n2)cc1C	Vdss	L/kg	5.6

* * *

assayInfo: Volume of distribution at steady state in dog at 5 mg/kg, iv
Assay type: ADME, organism-based, Canis lupus familiaris
assaySetup: in vivo, read-out: Vdss

compoundStructureString	Vd [L/kg]
Cc1nn(-c2ccnc(Nc3ccc4c(c3)c(Cl)c(C)n4C)n2)cc1CN1CC(O)C1	7.1

* * *

assayInfo: AUClast in dog at 5 mg/kg, iv
Format: ADME, organism-based, Canis lupus familiaris
Design: dose 5 mg/kg, time 0 - last, route intravenous
assaySetup: in vivo

compoundStructureString	AUC(0-t) [µg·h/mL]
Cc1nn(-c2ccnc(Nc3ccc4c(c3)c(Cl)c(C)n4C)n2)cc1CN1CC(O)C1	2.09

* * *

Listing of recorded half-life by entry.
assayInfo: Stability in human liver microsomes
Type: ADME
assaySetup: read-out: Stability

compoundStructureString	half-life
Cc1nn(-c2ccnc(Nc3ccc4c(c3)c(Cl)c(C)n4C)n2)cc1CN1CC(O)C1	> 1 h
Cc1nn(-c2ccnc(Nc3ccc4c(c3)c(Cl)c(C)n4C)n2)cc1CN1CC[C@@H](O)C1	> 1 h
Cc1nn(-c2ccnc(Nc3ccc4c(c3)c(C)c(C)n4C)n2)cc1CN1CC(O)C1	> 1 h

* * *

targetEntity: Cytochrome P450 3A4 (Homo sapiens)
Sequence (P08684 whole entry): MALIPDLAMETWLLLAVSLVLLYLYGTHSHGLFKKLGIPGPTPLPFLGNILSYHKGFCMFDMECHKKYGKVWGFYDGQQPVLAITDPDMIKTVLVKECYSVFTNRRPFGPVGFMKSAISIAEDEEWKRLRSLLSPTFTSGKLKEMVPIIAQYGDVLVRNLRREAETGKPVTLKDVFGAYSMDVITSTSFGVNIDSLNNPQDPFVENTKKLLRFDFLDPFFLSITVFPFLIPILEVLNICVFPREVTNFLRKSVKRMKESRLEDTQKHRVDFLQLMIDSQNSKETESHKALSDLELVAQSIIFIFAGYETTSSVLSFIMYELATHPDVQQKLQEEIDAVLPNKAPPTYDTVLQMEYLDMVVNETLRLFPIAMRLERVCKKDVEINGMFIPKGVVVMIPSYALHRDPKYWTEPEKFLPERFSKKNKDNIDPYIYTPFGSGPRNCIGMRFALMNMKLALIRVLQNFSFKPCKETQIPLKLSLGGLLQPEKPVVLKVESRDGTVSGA
assayInfo: Inhibition of CYP3A4 (unknown origin)
Format: ADME
pIC50: −log10 of the molar value.

compoundStructureString	readoutRelation	pIC50
Cc1cc(C)cc(Nc2nccc(-n3cc(C)c(CN4CC[C@@H](O)C4)c3)n2)c1	=	5.29
Cc1cn(-c2ccnc(Nc3cc(C)c(OCCO)c(C)c3)n2)cc1CN1CC[C@@H](O)C1	<	5.00

* * *

assayInfo: AUClast in Sprague-Dawley rat at 10 mg/kg
Type: ADME, organism-based
Parameters: dose 10 mg/kg, time 0 - last
assaySetup: in vivo
measuredMetric: AUC(0-t) (ng·h/mL)

compoundStructureString	dataValue
Cc1nn(-c2ccnc(Nc3ccc4c(c3)c(Cl)c(C)n4C)n2)cc1CN1CC(O)C1	3230
COc1c(C)cc(Nc2nccc(-n3cc(C)c(CN4CC(O)C4)c3)n2)cc1C	550
Cc1cc(C)cc(Nc2nccc(-n3cc(C)c(CN4CC[C@@H](O)C4)c3)n2)c1	6240
Cc1nn(-c2ccnc(Nc3ccc4c(c3)c(C)c(C)n4C)n2)cc1CN1CC(O)C1	4000

* * *

Quick list: solubility kinetic per entry.
assayInfo: Kinetic solubility of the compound
Type: physicochemical
assaySetup: read-out: Kinetic_solubility

compoundStructureString	solubility kinetic, µM
Cc1cn(-c2ccnc(Nc3cc(C)c(OCCO)c(C)c3)n2)cc1CN1CC[C@@H](O)C1	120
Cc1cc(C)cc(Nc2nccc(-n3cc(C)c(CN4CC[C@@H](O)C4)c3)n2)c1	70

* * *

assayInfo: Half life in dog at 5 mg/kg, iv
Type: ADME, organism-based, Canis lupus familiaris
assaySetup: in vivo
measuredMetric: half-life (h)

compoundStructureString	dataValue
Cc1nn(-c2ccnc(Nc3ccc4c(c3)c(Cl)c(C)n4C)n2)cc1CN1CC(O)C1	4.6

* * *

assayInfo: Clearance in dog at 5 mg/kg, iv
Format: ADME, organism-based, Canis lupus familiaris
assaySetup: in vivo

compoundStructureString	measurementUnits	clearance
Cc1nn(-c2ccnc(Nc3ccc4c(c3)c(Cl)c(C)n4C)n2)cc1CN1CC(O)C1	mL/min/kg	40.4

* * *

assayInfo: Oral bioavailability in dog at 10 mg/kg
Type: ADME, organism-based, Canis lupus familiaris
assaySetup: in vivo

compoundStructureString	bioavailability [%]
Cc1nn(-c2ccnc(Nc3ccc4c(c3)c(Cl)c(C)n4C)n2)cc1CN1CC(O)C1	46.4

* * *

targetEntity: Tyrosine-protein kinase SYK (Homo sapiens, UniProt P43405)
assayInfo: Inhibition of purified full-length human SYK pre-incubated for 30 mins at room temperature before Ulight-TK peptide substrate addition and measured 1 hr after substrate addition by cell free kinase assay
pIC50: −log10 of the molar value.
Reported pIC50 values for a set of molecules

compoundStructureString	pIC50
Cc1nn(-c2ccnc(Nc3ccc4c(c3)CCN4C)n2)cc1CN1CC(O)C1	7.69
Cc1cn(-c2ccnc(Nc3cc(C)c(OCCN4CCCC4)c(C)c3)n2)cc1CN1CC(O)C1	7.94
Cc1cn(-c2ccnc(Nc3cc(C)c(OCCO)c(C)c3)n2)cc1CN1CC(O)C1	8.30
Cc1cc(Nc2nccc(-n3cc(CN4CC(O)C4)c(C)n3)n2)cc(C)c1OCCN1CCCC1	8.05
Cc1cn(-c2ccnc(Nc3cc(C)c(OCC(=O)N4CCCC4)c(C)c3)n2)cc1CN1CC[C@@H](O)C1	7.84
Cc1cc(C)cc(Nc2nccc(-n3cc(C)c(CN4CC[C@H](C(=O)O)C4)c3)n2)c1	7.75
Cc1cn(-c2ccnc(Nc3cc(C)c(OS(C)(=O)=O)c(C)c3)n2)cc1CN1CC[C@@H](O)C1	8.10
Cc1cc(C)cc(Nc2nccc(-n3cc(C)c(CN4CC[C@@H](O)C4)c3)n2)c1	8.64
COc1cc(Nc2nccc(-n3cc(C)c(CN(C)C)c3)n2)cc(OC)c1OC	7.14

* * *

assayInfo: Clearance in Sprague-Dawley rat at 10 mg/kg, po
Format: ADME, organism-based
assaySetup: in vivo

compoundStructureString	measurementUnits	CL/F
COc1c(C)cc(Nc2nccc(-n3cc(C)c(CN4CC(O)C4)c3)n2)cc1C	mL/min/kg	70
Cc1nn(-c2ccnc(Nc3ccc4c(c3)c(Cl)c(C)n4C)n2)cc1CN1CC(O)C1	mL/min/kg	26
Cc1nn(-c2ccnc(Nc3ccc4c(c3)c(C)c(C)n4C)n2)cc1CN1CC(O)C1	mL/min/kg	21
Cc1cc(C)cc(Nc2nccc(-n3cc(C)c(CN4CC[C@@H](O)C4)c3)n2)c1	mL/min/kg	43

* * *

targetEntity: Tyrosine-protein kinase SYK (Homo sapiens, UniProt P43405)
assayInfo: Inhibition of purified full-length human SYK pre-incubated for 30 mins at room temperature before Ulight-TK peptide substrate addition and measured 1 hr after substrate addition by cell free kinase assay
# thresholds on IC50 define classes: low interval (below 20 nM), middle interval (20 nM to below 100 nM), high interval (100 nM or more)

compoundStructureString	targetEntity	class
Cc1nn(-c2nc(Nc3ccc4c(c3)c(C#N)nn4C)ncc2F)cc1CN1CC(O)C1	Tyrosine-protein kinase SYK (Homo sapiens, UniProt P43405)	high interval
Cc1cc(C)cc(Nc2nccc(-n3cc(CN4CC[C@@H](O)C4)c(C)n3)n2)c1	Tyrosine-protein kinase SYK (Homo sapiens, UniProt P43405)	low interval
CCn1ccc2cc(Nc3nccc(-n4cc(CN5CC(O)C5)c(C5CC5)n4)n3)ccc21	Tyrosine-protein kinase SYK (Homo sapiens, UniProt P43405)	low interval
Cc1nn(-c2nc(Nc3ccc4c(cnn4C)c3)ncc2F)cc1CN1CC(O)C1	Tyrosine-protein kinase SYK (Homo sapiens, UniProt P43405)	high interval
COc1cc(Nc2nccc(-n3cc(C)c(CN4CC(O)C4)c3)n2)cc(OC)c1OC	Tyrosine-protein kinase SYK (Homo sapiens, UniProt P43405)	middle interval
Cc1cn(-c2ccnc(Nc3cc(C)c(OCC(=O)N4CCCC4)c(C)c3)n2)cc1CN1CC(O)C1	Tyrosine-protein kinase SYK (Homo sapiens, UniProt P43405)	low interval
Cc1nn(-c2ccnc(Nc3ccccc3)n2)cc1CN1CC[C@@H](O)C1	Tyrosine-protein kinase SYK (Homo sapiens, UniProt P43405)	high interval
Cc1cn(-c2ccnc(Nc3cc(C)c(OCCO)c(C)c3)n2)cc1CN1CC[C@@H](O)C1	Tyrosine-protein kinase SYK (Homo sapiens, UniProt P43405)	low interval
Cc1cn(-c2ccnc(Nc3cc(C)c(Oc4ccccc4)c(C)c3)n2)cc1CN1CC[C@@H](O)C1	Tyrosine-protein kinase SYK (Homo sapiens, UniProt P43405)	high interval
CCn1ccc2cc(Nc3nccc(-n4cc(CN5CC(O)C5)c(C)n4)n3)ccc21	Tyrosine-protein kinase SYK (Homo sapiens, UniProt P43405)	middle interval
COc1cc(Nc2nccc(-n3cc(C)c(CN4CC(O)C4)c3)n2)cc(OC)c1OCC(=O)N1CCCC1	Tyrosine-protein kinase SYK (Homo sapiens, UniProt P43405)	middle interval
Cc1nn(-c2ccnc(Nc3ccc4c(ccn4C)c3)n2)cc1CN1CC(O)C1	Tyrosine-protein kinase SYK (Homo sapiens, UniProt P43405)	middle interval
Cc1cc(C)cc(Nc2nccc(-n3cc(C)c(CN(C)C)c3)n2)c1	Tyrosine-protein kinase SYK (Homo sapiens, UniProt P43405)	low interval
